B1: INTS3 (parent)
chain: DLNSKGKKREFRFHPIKETVVEEP

Variants of: B1
Test: protein stability index of a GFP-peptide fusion (GPS, HEK-293T) (PSI 1-6); higher = more stable;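 further: lentivirally expressed fusions sorted by FACS into six bins by GFP to DsRed ratio, PSI derived from sequencing read proportions per bin multiplied by bin number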
Settings: c terminus: a fixed tail appended
Label rule, in plain words: protein stability index of 2 and up is class 1, under 2 is class 0.

H14S = class 1

Then there is this variant:
Query :: Reported protein stability index reaches at least 2 for K5F ?
Result :: class 0

Sourced from the supplement of paper PMC10567573
